Target: T1, ActRIIB-Fc homodimer (human, UniProt Q13705 19-137)
T1 construct: extracellular domain; also called unmodified ActRIIB-Fc homodimer; ActRIIB-Fc:ActRIIB-Fc homodimer
T1 sequence (looked up): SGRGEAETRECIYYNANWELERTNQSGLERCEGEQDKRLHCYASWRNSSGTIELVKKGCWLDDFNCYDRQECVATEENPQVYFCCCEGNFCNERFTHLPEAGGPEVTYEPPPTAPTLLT
Assay: SPR (Biacore), 37 C, anti-Fc capture, ligand in flow
pKd: −log10 of the molar value.
Reported Property: pKd

Example binders with recorded pKd:
BMP10 (ligand, UniProt O95393 317-424, looked up) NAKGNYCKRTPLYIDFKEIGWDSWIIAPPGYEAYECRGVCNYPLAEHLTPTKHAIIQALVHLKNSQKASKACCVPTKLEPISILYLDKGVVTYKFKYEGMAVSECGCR : 11.40
BMP9 (ligand, UniProt Q9UK05 320-429, looked up, also called GDF2) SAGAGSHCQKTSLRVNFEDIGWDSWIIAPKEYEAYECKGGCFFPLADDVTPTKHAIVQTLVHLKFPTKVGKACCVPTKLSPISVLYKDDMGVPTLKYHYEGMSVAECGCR : 9.60
activin B (ligand, UniProt P09529 293-407, looked up) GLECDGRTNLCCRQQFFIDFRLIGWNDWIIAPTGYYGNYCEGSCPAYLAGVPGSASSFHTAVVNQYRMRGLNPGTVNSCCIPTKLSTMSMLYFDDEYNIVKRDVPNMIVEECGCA : 11.10

[A] GDF11 (ligand, UniProt O95390 299-407, looked up, also called BMP11) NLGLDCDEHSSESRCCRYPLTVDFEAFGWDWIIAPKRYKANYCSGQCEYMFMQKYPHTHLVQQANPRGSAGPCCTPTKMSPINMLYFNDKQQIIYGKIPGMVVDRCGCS
[B] activin A (ligand, UniProt P08476 311-426, looked up) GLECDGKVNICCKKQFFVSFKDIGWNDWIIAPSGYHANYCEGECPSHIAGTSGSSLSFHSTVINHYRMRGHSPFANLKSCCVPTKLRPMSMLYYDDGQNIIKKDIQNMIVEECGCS
Ask | Field: lower pKd | Options: A / B Write down the label attached to your selection.
Reply | B
